- Test system: human melanoma A375 cells
- assayOverview: Tumor cell proliferation assay (ATP Lite), A375
- Assay type: cell-based
- condition: A-375, 96 h, 4 days
quantity: IC50

Check out these entries, answers already filled in.
O=C(NCCCCl)c1ccncc1Nc1ccc(I)cc1F :: ≤ 3 µM
O=C(NC1CCCC1)c1ccncc1Nc1ccc(I)cc1F :: ≤ 3 µM

Q: What value of IC50 has been reported for the following molecule? CC(C)(C)OC(=O)NNC(=O)c1ccncc1Nc1ccc(I)cc1F
A: ≤ 3 µM

Q: What value of IC50 has been reported for the following molecule? Cc1cc(I)ccc1Nc1cnccc1C(=O)NOC[C@H](O)CO
A: ≤ 3 µM

Q: What value of IC50 has been reported for the following molecule? O=C(NCC1CC1)c1ccncc1Nc1ccc(I)cc1F
A: ≤ 3 µM

Q: What value of IC50 has been reported for the following molecule? CCONC(=O)c1ccncc1Nc1ccc(I)cc1Cl
A: ≤ 3 µM

Q: What value of IC50 has been reported for the following molecule? O=C(NCCO)c1ccncc1Nc1ccc(I)cc1F
A: ≤ 3 µM

Q: What value of IC50 has been reported for the following molecule? O=C(NCCCn1ccnc1)c1ccncc1Nc1ccc(I)cc1F
A: ≤ 3 µM

Q: What value of IC50 has been reported for the following molecule? O=C(NOC1CCCCO1)c1ccncc1Nc1ccc(I)cc1F (stereo not drawn)
A: ≤ 3 µM

Q: What value of IC50 has been reported for the following molecule? O=C(NNC(=O)c1n[nH]c2ccccc12)c1ccncc1Nc1ccc(I)cc1F
A: ≤ 3 µM

----------
pIC50: −log10 of the molar value.
Lab note: pIC50 readings collected with human MEK1 (Homo sapiens) for the following compounds.

Q: // map Cc1cc(I)ccc1Nc1cnccc1C(=O)NOC[C@H](O)CO to recorded pIC50 (system: human MEK1 (Homo sapiens))
A: > 6.00

Q: // map O=C(O)c1ccncc1Nc1ccc(SC(F)(F)F)cc1 to recorded pIC50 (system: human MEK1 (Homo sapiens))
A: 5.00 to 6.00

Q: // map O=C(O)c1ccc(CNC(=O)c2ccncc2Nc2ccc(I)cc2F)cc1 to recorded pIC50 (system: human MEK1 (Homo sapiens))
A: > 6.00

Q: // map CCOC(CCCNC(=O)c1ccncc1Nc1ccc(I)cc1F)OCC to recorded pIC50 (system: human MEK1 (Homo sapiens))
A: > 6.00

Q: // map CCC(CO)(CO)NC(=O)c1ccncc1Nc1ccc(I)cc1F to recorded pIC50 (system: human MEK1 (Homo sapiens))
A: > 6.00

Q: // map O=C(N[C@H]1CCCC[C@@H]1O)c1ccncc1Nc1ccc(I)cc1F (relative stereo) to recorded pIC50 (system: human MEK1 (Homo sapiens))
A: > 6.00

Q: // map O=C(NOCc1c(F)c(F)c(F)c(F)c1F)c1ccncc1Nc1ccc(I)cc1F to recorded pIC50 (system: human MEK1 (Homo sapiens))
A: > 6.00

----------
Quick reference for IC50 among some compounds
- tgt: human MEK1 (Homo sapiens, UniProt Q02750)
- Sequence (Q02750 whole entry): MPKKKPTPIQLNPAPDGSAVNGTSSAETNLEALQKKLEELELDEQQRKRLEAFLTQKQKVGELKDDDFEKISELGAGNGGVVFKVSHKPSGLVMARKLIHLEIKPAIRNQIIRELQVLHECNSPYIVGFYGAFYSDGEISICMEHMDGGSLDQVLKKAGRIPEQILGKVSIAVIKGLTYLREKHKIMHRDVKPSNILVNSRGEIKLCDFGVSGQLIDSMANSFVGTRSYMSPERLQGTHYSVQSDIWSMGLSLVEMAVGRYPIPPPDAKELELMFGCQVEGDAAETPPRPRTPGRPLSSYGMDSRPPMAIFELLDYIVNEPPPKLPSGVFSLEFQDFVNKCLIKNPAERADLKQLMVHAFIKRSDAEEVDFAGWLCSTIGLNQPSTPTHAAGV

O=C(NOC[C@@H](O)CO)c1ccncc1Nc1ccc(I)cc1F :: < 1000 nM

Q: // map O=C(NNc1ccnc2cc(Cl)ccc12)c1ccncc1Nc1ccc(I)cc1F to recorded IC50 (system: human MEK1 (Homo sapiens, UniProt Q02750))
A: 1000 to 10000 nM

Q: // map O=C(NOC[C@H](O)CO)c1ccncc1Nc1ccc(I)cc1 to recorded IC50 (system: human MEK1 (Homo sapiens, UniProt Q02750))
A: < 1000 nM

Q: // map O=C(NOC1CCCCO1)c1ccncc1Nc1ccc(I)cc1F (stereo not shown) to recorded IC50 (system: human MEK1 (Homo sapiens, UniProt Q02750))
A: < 1000 nM

Q: // map O=C(NCCCN1CCNCC1)c1ccncc1Nc1ccc(I)cc1F to recorded IC50 (system: human MEK1 (Homo sapiens, UniProt Q02750))
A: < 1000 nM

Q: // map CCNC(=O)c1ccncc1Nc1ccc(I)cc1F to recorded IC50 (system: human MEK1 (Homo sapiens, UniProt Q02750))
A: < 1000 nM

Q: // map CCONC(=O)c1cc[n+]([O-])cc1Nc1ccc(Br)cc1C to recorded IC50 (system: human MEK1 (Homo sapiens, UniProt Q02750))
A: 1000 to 10000 nM

Reference source: patent US8524911B2
